Item-by-item account of pIC50
Target: TYK2 (Homo sapiens)
Construct: endogenous in cells; host or cells: Molt4 (ATCC CRL-1582) and Ramos (ATCC CRL-1596), mixed lysate 1:2
Assay: Kinobeads assay, TYK2 (competition binding in mixed Molt4/Ramos cell lysate, dot blot detection)
Conditions: Kinobeads assay, Molt4/Ramos lysate; read-out: TYK2 Band (Kinobeads assay potency, IC50)
pIC50: −log10 of the molar value.

As a guide, the following entries are already answered.
NC(=O)Cn1cc(Nc2nccc(NCc3c(F)cc(F)cc3F)n2)cn1 = 7.00 to 8.00
CNC(=O)Cn1cc(Nc2ncc(F)c(NCc3c(F)cccc3F)n2)cn1 = 7.00 to 8.00

Query "OCCn1cc(Nc2ncc(Cl)c(NCc3c(Cl)cccc3Cl)n2)cn1" yields pIC50 of 7.00 to 8.00

Query "CC(C)NC(=O)Cn1cc(Nc2ncc(F)c(NCc3c(F)ccc(F)c3F)n2)cn1" yields pIC50 of ≥ 8.00

Query "CS(=O)(=O)c1ccccc1CNc1nc(Nc2cnn(CC3CC3)c2)ncc1Cl" yields pIC50 of 5.00 to 6.00

Query "OCCn1cc(Nc2ncc(F)c(NCc3cc(F)ccc3F)n2)cn1" yields pIC50 of ≥ 8.00

Query "O=C(Cn1cc(Nc2ncc(Cl)c(NCc3ccccc3)n2)cn1)N1CCNCC1" yields pIC50 of 7.00 to 8.00

Query "CNC(=O)Cn1cc(Nc2ncc(Cl)c(NCc3ccccc3S(=O)(=O)NC)n2)cn1" yields pIC50 of 6.00 to 7.00

###

Biological target: TYK2 (Homo sapiens, UniProt P29597)
Construct: endogenous in cells; host or cells: Molt4 (ATCC CRL-1582) and Ramos (ATCC CRL-1596), mixed lysate 1:2
Sequence (P29597 whole entry): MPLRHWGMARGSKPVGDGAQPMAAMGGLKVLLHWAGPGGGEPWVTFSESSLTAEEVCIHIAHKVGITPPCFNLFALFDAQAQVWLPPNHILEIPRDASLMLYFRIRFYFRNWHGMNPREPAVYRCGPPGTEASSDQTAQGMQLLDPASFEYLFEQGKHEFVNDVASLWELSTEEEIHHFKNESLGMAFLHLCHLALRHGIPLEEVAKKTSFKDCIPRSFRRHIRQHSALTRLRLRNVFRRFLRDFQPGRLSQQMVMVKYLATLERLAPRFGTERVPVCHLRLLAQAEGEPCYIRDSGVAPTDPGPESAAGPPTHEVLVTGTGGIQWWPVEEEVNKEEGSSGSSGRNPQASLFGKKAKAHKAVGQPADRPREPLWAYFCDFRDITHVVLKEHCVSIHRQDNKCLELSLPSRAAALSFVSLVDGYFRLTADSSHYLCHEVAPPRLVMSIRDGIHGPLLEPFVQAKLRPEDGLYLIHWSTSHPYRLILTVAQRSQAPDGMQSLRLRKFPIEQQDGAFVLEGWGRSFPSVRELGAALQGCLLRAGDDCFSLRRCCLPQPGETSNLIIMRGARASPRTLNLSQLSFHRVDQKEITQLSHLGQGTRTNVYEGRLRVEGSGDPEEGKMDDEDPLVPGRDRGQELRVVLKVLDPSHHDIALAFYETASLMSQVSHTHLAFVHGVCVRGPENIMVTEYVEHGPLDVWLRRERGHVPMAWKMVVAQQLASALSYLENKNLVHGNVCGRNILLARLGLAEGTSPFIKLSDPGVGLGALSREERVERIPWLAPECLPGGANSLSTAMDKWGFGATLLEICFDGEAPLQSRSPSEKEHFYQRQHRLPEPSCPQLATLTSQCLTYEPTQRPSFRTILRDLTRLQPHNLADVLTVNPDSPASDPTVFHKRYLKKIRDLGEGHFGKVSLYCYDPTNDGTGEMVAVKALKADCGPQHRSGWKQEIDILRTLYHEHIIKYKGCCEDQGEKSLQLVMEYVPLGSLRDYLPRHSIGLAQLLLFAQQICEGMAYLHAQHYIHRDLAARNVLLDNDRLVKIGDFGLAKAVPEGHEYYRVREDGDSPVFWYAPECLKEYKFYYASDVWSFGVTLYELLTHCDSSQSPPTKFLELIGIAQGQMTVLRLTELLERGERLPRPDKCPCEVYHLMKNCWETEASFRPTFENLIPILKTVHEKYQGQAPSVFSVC
Experiment: Kinobeads assay, TYK2 (competition binding in mixed Molt4/Ramos cell lysate, dot blot detection)
Settings: Kinobeads assay, Molt4/Ramos lysate; read-out: TYK2 Band (Kinobeads assay potency, IC50)
pIC50: −log10 of the molar value.
Item-by-item account of pIC50

Cc1cccc(F)c1CNc1ccnc(Nc2cnn(C)c2)n1 [Example I-437] = 7.00 to 8.00

Query CNC(=O)Cn1cc(Nc2ncc(Cl)c(NCc3cccc(OCC#N)c3)n2)cn1 [Example I-364] yields pIC50 of 6.00 to 7.00

Query COc1cccc(CNc2nc(Nc3cnn(CCO)c3)ncc2Cl)c1 [Example I-186] yields pIC50 of 6.00 to 7.00

Query COc1cccc(CNc2nc(Nc3cnn(CC(=O)N(C)C)c3)ncc2Cl)c1 [Example I-244] yields pIC50 of 6.00 to 7.00

Query OCCn1cc(Nc2ncc(Cl)c(NCc3cccc(F)c3F)n2)cn1 [Example I-180] yields pIC50 of 7.00 to 8.00

Query COc1ccc(Cl)c(CNc2ccnc(Nc3cnn(CC(=O)N[C@H](C)CO)c3)n2)c1F [Example I-123] yields pIC50 of ≥ 8.00

###

Target: TYK2 (Homo sapiens, UniProt P29597)
Construct: endogenous in cells; host or cells: Molt4 (ATCC CRL-1582) and Ramos (ATCC CRL-1596), mixed lysate 1:2
Assay: Kinobeads assay, TYK2 (competition binding in mixed Molt4/Ramos cell lysate, dot blot detection)
Conditions: Kinobeads assay, Molt4/Ramos lysate; read-out: TYK2 Band (Kinobeads assay potency, IC50)
Assay Readout: IC50

O=C(O)Cn1cc(Nc2ncc(Cl)c(NCc3c(F)cccc3F)n2)cn1 = 10 to 100 nM
COc1c(F)cccc1CNc1nc(Nc2cnn(CC(=O)O)c2)ncc1Cl = 100 to 1000 nM
N#Cc1cccc(CNc2nc(Nc3cnn(CC(=O)N4CCOCC4)c3)ncc2Cl)c1 = 10 to 100 nM

Then there is this compound:
Entry "Cc1cnc(Nc2cnn(CC(F)(F)F)c2)nc1NCc1cc(F)cc(F)c1" under TYK2 (Homo sapiens, UniProt P29597) had IC50 of 1000 to 10000 nM

###

Molecular target: TYK2 (Homo sapiens, UniProt P29597)
Construct: endogenous in cells; host or cells: Molt4 (ATCC CRL-1582) and Ramos (ATCC CRL-1596), mixed lysate 1:2
Assay: Kinobeads assay, TYK2 (competition binding in mixed Molt4/Ramos cell lysate, dot blot detection)
Conditions: Kinobeads assay, Molt4/Ramos lysate; read-out: TYK2 Band (Kinobeads assay potency, IC50)
Method: The compounds of the present invention as described in the previous examples were tested in a Kinobeads™ assay as described for ZAP-70 (WO-A 2007/137867). […] Bound proteins were then eluted and the presence of TYK2 and JAK2 was detected and quantified using specific antibodies in a dot blot procedure and the Odyssey infrared detection system. Dose response curves for individual kinases were generated and IC50 values calculated. […]
pIC50: −log10 of the molar value.
Assay Readout: pIC50

COc1ccc(F)c(CNc2nc(Nc3cnn(CC(=O)NC(C)C)c3)ncc2Cl)c1F = 7.00 to 8.00

Query "OCCn1cc(Nc2ncc(F)c(NCc3ccccc3F)n2)cn1" yields pIC50 of 7.00 to 8.00

Query "Cc1cnc(Nc2cnn(CC(=O)N(C)C)c2)nc1NCc1cc(F)cc(C(F)(F)F)c1" yields pIC50 of 6.00 to 7.00

Query "CNC(=O)Cn1cc(Nc2ncc(C)c(NCc3cc(F)cc(F)c3)n2)cn1" yields pIC50 of 6.00 to 7.00

Query "Fc1cccc(CNc2nc(Nc3cn[nH]c3)ncc2Cl)c1" yields pIC50 of 6.00 to 7.00

Query "Cc1cnc(Nc2cnn(CC(=O)N3CCOCC3)c2)nc1NCc1c(F)ccc(F)c1F" yields pIC50 of ≥ 8.00

Query "[2H]C([2H])(O)C([2H])([2H])n1cc(Nc2ncc(Cl)c(NCc3cccc(F)c3)n2)cn1" yields pIC50 of 6.00 to 7.00

Query "CC(C)NC(=O)Cn1cc(Nc2nccc(NCc3c(F)cc(C#N)cc3F)n2)cn1" yields pIC50 of 7.00 to 8.00

Query "O=C(Cn1cc(Nc2nccc(NCc3c(F)cccc3Cl)n2)cn1)N[C@@H]1C[C@@H]1F" yields pIC50 of 7.00 to 8.00

Query "Cc1cccc(F)c1CNc1ccnc(Nc2cnn(CC(=O)N[C@@H](C)CO)c2)n1" yields pIC50 of ≥ 8.00

Query "Clc1cnc(Nc2cn[nH]c2)nc1NCc1ccccc1" yields pIC50 of 6.00 to 7.00

Query "CC(C)N(C)C(=O)Cn1cc(Nc2ncc(F)c(NCc3cccc(OC(F)F)c3)n2)cn1" yields pIC50 of 7.00 to 8.00

Query "COc1ccc(F)c(CNc2nc(Nc3cnn(CC(=O)NC(C)C)c3)ncc2F)c1F" yields pIC50 of ≥ 8.00

Query "O=C(Cn1cc(Nc2ncc(Cl)c(NCc3ccccc3)n2)cn1)N1CCC2(CC1)COC2" yields pIC50 of 6.00 to 7.00

Query "Cc1cnc(Nc2cnn(C)c2)nc1NCc1c(F)cc(S(N)(=O)=O)cc1F" yields pIC50 of 7.00 to 8.00

Query "COc1ccc(Cl)c(CNc2ccnc(Nc3cnn(CC(=O)NC(C)C)c3)n2)c1F" yields pIC50 of ≥ 8.00

Query "COc1ccc(F)c(CNc2nc(Nc3cnn(C)c3)ncc2C)c1F" yields pIC50 of 7.00 to 8.00

###

Biological target: TYK2 (Homo sapiens, UniProt P29597)
Construct: endogenous in cells; host or cells: Molt4 (ATCC CRL-1582) and Ramos (ATCC CRL-1596), mixed lysate 1:2
Assay: Kinobeads assay, TYK2 (competition binding in mixed Molt4/Ramos cell lysate, dot blot detection)
Details: Kinobeads assay, Molt4/Ramos lysate; read-out: TYK2 Band (Kinobeads assay potency, IC50)
pIC50: −log10 of the molar value.
Assay Readout: pIC50

OCCn1cc(Nc2ncc(Cl)c(NCc3c(F)cccc3-c3cn[nH]c3)n2)cn1 [Example I-265] = 6.00 to 7.00
C[C@H](CO)NC(=O)Cn1cc(Nc2nccc(NCc3c(F)cccc3Cl)n2)cn1 [Example I-106] = ≥ 8.00
COc1ccccc1CNc1nc(Nc2cnn(CCO)c2)ncc1Cl [Example I-185] = 6.00 to 7.00
C[C@H](CO)NC(=O)Cn1cc(Nc2nccc(NCc3c(F)cc(F)cc3F)n2)cn1 [Example I-456] = 7.00 to 8.00
Cn1cc(Nc2ncc(Cl)c(NCc3ncccc3F)n2)cn1 [Example I-260] = 6.00 to 7.00
Cc1cnc(Nc2cnn(CC(=O)N(C)C)c2)nc1NCc1c(F)ccc(F)c1F [Example I-422] = ≥ 8.00
Cn1cc(Nc2ncc(Cl)c(NCc3cccc(F)c3F)n2)cn1 [Example I-179] = 6.00 to 7.00
CS(=O)(=O)c1ccc(F)cc1CNc1nc(Nc2cn[nH]c2)ncc1Cl [Example I-72] = 7.00 to 8.00
N#CC1CCCN1C(=O)Cn1cc(Nc2ncc(Cl)c(NCc3ccccc3)n2)cn1 (stereo not drawn) [Example I-237] = 7.00 to 8.00
COc1ccc(S(C)(=O)=O)cc1CNc1nc(Nc2cnn(C)c2)ncc1Cl [Example I-449] = 7.00 to 8.00

Query OCCn1cc(Nc2ncc(Cl)c(NCc3ccccn3)n2)cn1 [Example I-247] yields pIC50 of 5.00 to 6.00

Query CN(C)C(=O)Cn1cc(Nc2ncc(F)c(NCc3c(Cl)cccc3Cl)n2)cn1 [Example I-251] yields pIC50 of 7.00 to 8.00

Query CNC(=O)Cn1cc(Nc2ncc(Cl)c(NCc3ccccc3)n2)cn1 [Example I-195] yields pIC50 of 6.00 to 7.00

Query CN(C)C(=O)Cn1cc(Nc2ncc(F)c(NCc3cc(F)cc(C(F)(F)F)c3)n2)cn1 [Example I-331] yields pIC50 of 6.00 to 7.00

Query CC(C)(CO)NC(=O)Cn1cc(Nc2nccc(NCc3c(F)cc(F)cc3F)n2)cn1 [Example I-460] yields pIC50 of 7.00 to 8.00
